EXPERIMENT DESCRIPTION: stimulators of insulin release from INS-1E, primary screen, cell-based, 5 mM glucose, NPC library (AID 1117329); note: reference of the scale not given here
CONDITION DESCRIPTION: rat INS-1E insulin secretion, at 10 µM, hits give high values
MEASURE NAME: insulin secretion stimulation (%)
Quick reminder: number only, in %, skip the unit.

Worked cases, insulin secretion stimulation given:
[
  {
    "COMPOUND": "C[C@]1(Cn2ccnn2)[C@H](C(=O)O)N2C(=O)C[C@H]2S1(=O)=O",
    "insulin secretion stimulation (%)": 10.1
  },
  {
    "COMPOUND": "CCCCCCCCCCCCCCCC(=O)NCCO",
    "insulin secretion stimulation (%)": 4.7
  },
  {
    "COMPOUND": "CCOC(=O)Nc1ccc2c(c1)N(C(=O)CCN1CCOCC1)c1ccccc1S2",
    "insulin secretion stimulation (%)": 1.7
  },
  {
    "COMPOUND": "Cc1ccc(Cl)c(OCC(O)CNC(C)(C)C)c1 (stereo unspecified)",
    "insulin secretion stimulation (%)": 1
  },
  {
    "COMPOUND": "COc1ccc2[nH]c(S(=O)Cc3ncc(C)c(OC)c3C)nc2n1 (stereo unspecified)",
    "insulin secretion stimulation (%)": 4.2
  }
]

Reported insulin secretion stimulation of CC1=C(/C=C/C(C)=C/C=C/C(C)=C/C(=O)Nc2ccc(O)cc2)C(C)(C)CCC1 : 2.3

* * *

EXPERIMENT DESCRIPTION: antimalarial activity against Dd2 strain (AID 2302);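 note: 0% = DMSO untreated growth and 100% = chloroquine plus artemisinin killed control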
CONDITION DESCRIPTION: P. falciparum Dd2 in RBCs, LDH growth readout, 72 h; at 2 µM; hits give high values
The source made the active and inactive calls.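 Rule for the calls: active = growth inhibition above 50% at the single 2 µM test dose, taken to imply half-maximal potency below 2 µM; inactive = the rest.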
MEASURE NAME: growth inhibition

Worked cases, growth inhibition given:
[
  {
    "COMPOUND": "c1ccc(Oc2cccc(Nc3ccnc4ccccc34)c2)cc1",
    "growth inhibition": "14% (inactive)"
  },
  {
    "COMPOUND": "CC(C)(C)OC(=O)N(Cc1cc(-n2nnnc2C(F)(F)F)ccc1O)[C@H]1CCCN(C(=O)OC(C)(C)C)[C@H]1c1ccccc1",
    "growth inhibition": "66% (active)"
  },
  {
    "COMPOUND": "CC(CN(C)C)C(=O)Nc1ccc(-c2cccc(-c3nc4ccccc4[nH]3)c2)cc1 (centres undefined)",
    "growth inhibition": "57% (active)"
  }
]

Reported growth inhibition of Cc1cc(OCc2ccncc2)cc2c1C(=O)CC(C)(C)O2 : 0% (inactive)

Reported growth inhibition of CN1CCC(C(=O)Nc2ccc(-c3cccc(-c4nc5ccc(C(F)(F)F)cc5[nH]4)c3)cc2)CC1 : 97% (active)

Reported growth inhibition of O=C(/C=C/c1ccc(Cl)c(Cl)c1)NCCCCCN1CCC(NC(=O)Nc2ccccc2Cl)CC1 : 23% (inactive)

Reported growth inhibition of N#Cc1cccc(NC(=O)Nc2ccc(CC(=O)N3CCc4cc(Cl)c(N5CCN(C/C=C/c6ccccc6)CC5)cc43)cc2)c1 : 61% (active)

Reported growth inhibition of Cc1ccccc1C1CCN(C2CCC(NC(=O)/C=C/c3cccc(F)c3)CC2)CC1 (centres undefined) : 38% (inactive)

Reported growth inhibition of O=C(C=Cc1ccc(C(=O)Nc2ccc(C3=NCCN3)cc2)cc1)Nc1ccc(C2=NCCN2)cc1 : 101% (active)
